Species: Rattus norvegicus
Assay: Open TG-GATES - Regimen: Single
Format: toxicity, organism-based, Sprague-Dawley
Design: regimen Single, gender Male, age 6 weeks
Settings: in vivo, po, 0 mg/kg, 3 h, tissue Plasma, route gavage, dose level Control
Classification field: y = TG at or over 50 mg/dL; n = TG under 50 mg/dL.

In [3]: df
Out[3]:
                                   compound  label
0                   O=C(O)c1cccnc1 [NIACIN]      n
1  CC(C)C(=O)Nc1ccc([N+](=O)[O-])c(C(F)(F)F)c1 [FLUTAMIDE]      y
2  C[C@](N)(Cc1ccc(O)c(O)c1)C(=O)O [METHYLDOPA]      y
3  CCc1oc2ccccc2c1C(=O)c1cc(I)c(O)c(I)c1 [BENZIODARONE]      y
4      CN1C(=O)OC(C)(C)C1=O [TRIMETHADIONE]      n
5           CCSCC[C@H](N)C(=O)O [ETHIONINE]      y
6  C[C@]12CCC(=O)C=C1CC[C@@H]1[C@@H]2CC[C@@]2(C)[C@H]1CC[C@]2(C)O [METHYLTESTOSTERONE]      n
7   CC(C)(S)[C@@H](N)C(=O)O [PENICILLAMINE]      y
8  CC(=O)Oc1cc(C(C)C)c(OCCN(C)C)cc1C [MOXISYLYTE]      y

* * *

// Eos lookup, one value per entry
Species: Rattus norvegicus
Test: Open TG-GATES - Regimen: Single
Assay type: toxicity, organism-based, Sprague-Dawley
Design: regimen Single, gender Male, age 6 weeks
Details: in vivo, po, 0 mg/kg, 9 h, tissue Blood, route gavage, dose level Control
observation type: Eos (%)

In [3]: df
Out[3]:
                                smiles_repr  observation_type  readout_units  reported_measurement
0                   CC(C)(S)[C@@H](N)C(=O)O               Eos              %                   0.6
1  C[C@]12CCC(=O)C=C1CC[C@@H]1[C@@H]2CC[C@@]2(C)[C@H]1CC[C@]2(C)O               Eos              %                     1
2                         Oc1ncnc2[nH]ncc12               Eos              %                     1
3           C[C@](N)(Cc1ccc(O)c(O)c1)C(=O)O               Eos              %                     1
4                            O=C(O)c1cccnc1               Eos              %                   0.8
5  C#C[C@]1(O)CC[C@H]2[C@@H]3CCc4cc(O)ccc4[C@H]3CC[C@@]21C               Eos              %                     1

* * *

// APTT lookup, one value per entry
Species: Rattus norvegicus
Assay: Open TG-GATES - Regimen: Daily Repeat
Format: toxicity, organism-based, Sprague-Dawley
Set-up: regimen Daily Repeat, gender Male, age 6 weeks
Details: in vivo, po, 0 mg/kg, 72 h, tissue Blood, route gavage, dose level Control, time 3 day
observation type: APTT (s)

>>> print(df.to_string())
                                    compound  reported_measurement
 0  C[C@]12CCC(=O)C=C1CC[C@@H]1[C@@H]2CC[C@@]2(C)[C@H]1CC[C@]2(C)O                  16.2
 1  O=C(N[C@H](CO)[C@H](O)c1ccc([N+](=O)[O-])cc1)C(Cl)Cl                  17.1
 2                       CCSCC[C@H](N)C(=O)O                  19.8
 3          Nc1nc(N)c2nc(-c3ccccc3)c(N)nc2n1                  16.3
 4                   CC(C)(S)[C@@H](N)C(=O)O                  15.9
 5                         Oc1ncnc2[nH]ncc12                  16.6
 6  CC(C)C(=O)Nc1ccc([N+](=O)[O-])c(C(F)(F)F)c1 [FLUTAMIDE]                    19
 7  C#C[C@]1(O)CC[C@H]2[C@@H]3CCc4cc(O)ccc4[C@H]3CC[C@@]21C                  16.4
 8     CCc1oc2ccccc2c1C(=O)c1cc(I)c(O)c(I)c1                  17.3
 9           C[C@](N)(Cc1ccc(O)c(O)c1)C(=O)O                  15.9
10                   CC(=N)S [THIOACETAMIDE]                    17
11                      CN1C(=O)OC(C)(C)C1=O                    17
12  CCN1CCCC1CNC(=O)c1cc(S(N)(=O)=O)ccc1OC (centres undefined) [SULPIRIDE]                  16.8
13         CC(=O)Oc1cc(C(C)C)c(OCCN(C)C)cc1C                  21.2
